Values were extracted from paper doi:10.1101/2022.06.15.495552.

Kd reference
- TESTED TARGET: ZFRlong;ILF2 (29-390) (human;human?, UniProt Q96KR1;Q12905 317-1074;29-390, |)
- Sequence (Q96KR1 317-1074, chain 1 of 2): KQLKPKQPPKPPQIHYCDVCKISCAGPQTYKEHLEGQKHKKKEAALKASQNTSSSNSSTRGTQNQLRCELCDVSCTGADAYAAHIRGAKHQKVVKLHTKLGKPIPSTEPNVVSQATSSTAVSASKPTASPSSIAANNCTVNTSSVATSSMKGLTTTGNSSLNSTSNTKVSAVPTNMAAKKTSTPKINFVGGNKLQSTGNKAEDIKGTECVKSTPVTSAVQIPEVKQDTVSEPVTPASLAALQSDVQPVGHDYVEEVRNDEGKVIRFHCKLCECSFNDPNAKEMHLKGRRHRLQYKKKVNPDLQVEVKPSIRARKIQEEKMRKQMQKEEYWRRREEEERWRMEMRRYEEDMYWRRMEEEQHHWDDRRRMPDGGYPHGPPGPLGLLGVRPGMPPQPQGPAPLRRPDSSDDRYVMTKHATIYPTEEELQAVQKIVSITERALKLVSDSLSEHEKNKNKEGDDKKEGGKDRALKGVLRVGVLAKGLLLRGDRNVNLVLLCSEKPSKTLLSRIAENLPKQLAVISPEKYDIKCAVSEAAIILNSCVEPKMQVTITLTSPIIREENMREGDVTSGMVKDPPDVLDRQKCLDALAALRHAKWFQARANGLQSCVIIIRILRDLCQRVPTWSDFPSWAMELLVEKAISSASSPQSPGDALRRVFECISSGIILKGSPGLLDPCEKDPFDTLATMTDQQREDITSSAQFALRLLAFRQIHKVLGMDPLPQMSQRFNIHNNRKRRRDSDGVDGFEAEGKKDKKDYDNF
- Sequence (Q12905 29-390, chain 2 of 2): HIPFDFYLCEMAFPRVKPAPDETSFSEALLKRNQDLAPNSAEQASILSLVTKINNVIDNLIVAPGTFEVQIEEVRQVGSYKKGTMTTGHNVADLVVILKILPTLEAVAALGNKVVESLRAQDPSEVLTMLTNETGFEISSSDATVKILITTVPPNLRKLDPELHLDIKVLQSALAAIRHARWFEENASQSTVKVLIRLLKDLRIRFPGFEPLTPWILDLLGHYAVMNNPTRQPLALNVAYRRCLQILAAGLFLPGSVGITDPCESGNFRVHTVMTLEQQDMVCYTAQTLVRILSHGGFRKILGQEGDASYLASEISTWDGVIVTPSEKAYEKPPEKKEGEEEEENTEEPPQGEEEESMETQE
- ASSAY OVERVIEW: EMSA; 4 mM Mg2+; EMSA: 20 mM HEPES pH 7.5, 150 mM K acetate, 4 mM Mg acetate, 1 mM DTT, 0.5 uM nucleic acid, 1 h on ice; 8% native PAGE in 0.5x TBE at 4 C
- ASSAY SETUP: protein: recombinant;recombinant; tags: N-terminal His6;N-terminal His6; copies: 1;1; label: Cy5 on strand 1 (5' per Methods); blunt
VALUE KIND: Kd

C-rich (GC-rich) 24-mer dsRNA, Zfr-RBNS1 (dsRNA) RNA 1: AAUGACACCCAAAAUGACACCCAA RNA 2: UUGGGUGUCAUUUUGGGUGUCAUU = ~300 nM
U-rich (AU-rich) 24-mer dsRNA, Zfr-RBNS3 (dsRNA) RNA 1: AAUGUUGUAAAAAAUGUUGUAAAA RNA 2: UUUUACAACAUUUUUUACAACAUU = ~300 nM
